- Test system: HeLa MZ
- test_method_notes: filipin (cholesterol) integrated intensity within LBPA endosomes, Z-score; higher = more cholesterol in LBPA endosomes
- run_parameters: compound concentration in added solution (µM; 5 µl added to 20 µl cells): 10; 18 h
Counter-ions that a name gives are not always drawn.
Where filipin (z-score) equals or exceeds -0.02, the correct label is rule met; where it does not, the label is rule not met.

* O=C(NC(Cc1cc(=O)[nH]c2ccccc12)C(=O)O)c1ccc(Cl)cc1 (centres undefined) [Rebamipide] | rule not met
* C#C[C@]1(O)CC[C@H]2[C@@H]3CCC4=C(CCC(=O)C4)[C@H]3CC[C@@]21C | rule not met
* CCc1cccc2c3c([nH]c12)C(CC)(CC(=O)O)OCC3 (centres undefined) | rule not met
* CCCC(C(=O)OCCN(CC)CC)(c1ccccc1)c1ccccc1 [Proadifen hydrochloride] | rule met
* CC(C)NC[C@H](O)COc1ccc(CC(N)=O)cc1 [(S)-(-)-Atenolol] | rule not met
* CCN(CC)Cc1cc(Nc2ccnc3cc(Cl)ccc23)ccc1O [Amodiaquin dihydrochloride dihydrate] | rule met
* NC(=O)c1cnccn1 [Pyrazinamide] | rule not met
* CC(C)NCC(O)COc1cccc2[nH]ccc12 (centres undefined) | rule not met
* CC(CN(C)C)CN1c2ccccc2CCc2ccccc21 (centres undefined) [Trimipramine maleate salt] | rule met
* Oc1c(I)cc(Cl)c2cccnc12 | rule not met
* COc1cnc(NS(=O)(=O)c2ccc(N)cc2)nc1 | rule not met
* CC[C@H](C)C(=O)O[C@H]1C[C@@H](C)C=C2C=C[C@H](C)[C@H](CC[C@@H]3C[C@@H](O)CC(=O)O3)[C@H]21 | rule met
* CCN(CC)CCc1nc(-c2ccccc2)no1 [Oxalamine citrate salt] | rule not met
* C[C@]12CC[C@@H]3c4ccc(O)cc4CC[C@H]3[C@@H]1C[C@@H](O)[C@@H]2O | rule not met
* CCCCc1cc2ccccc2c(OCCN(C)C)n1 [Dimethisoquin hydrochloride] | rule met
* O=C(O)c1ccccc1OP(=O)(O)O | rule met
* O=C(CCNNC(=O)c1ccncc1)NCc1ccccc1 [Nialamide] | rule not met
* C[C@@H](O)[C@H]1C(=O)N2C(C(=O)O)=C(S[C@@H]3CN[C@H](C(=O)N(C)C)C3)[C@H](C)[C@H]12 | rule not met
* CCn1cc(C(=O)O)c(=O)c2cnc(N3CCCC3)nc21 | rule not met
